# Target Or System: T1, PhoEF1A Q326A•GTP•PfuPelota complex (Pyrococcus horikoshii | Pyrococcus …, UniProt O59153 1-428, Q326A)
# T1 construct: elongation factor aEF1A of Pyrococcus horikoshii (PhoEF1A); complex of the EF1A mutant, GTP and PfuPelota; also called Q326(R329)A; P. horikoshii aEF1A-Q326A
# T1 sequence 1: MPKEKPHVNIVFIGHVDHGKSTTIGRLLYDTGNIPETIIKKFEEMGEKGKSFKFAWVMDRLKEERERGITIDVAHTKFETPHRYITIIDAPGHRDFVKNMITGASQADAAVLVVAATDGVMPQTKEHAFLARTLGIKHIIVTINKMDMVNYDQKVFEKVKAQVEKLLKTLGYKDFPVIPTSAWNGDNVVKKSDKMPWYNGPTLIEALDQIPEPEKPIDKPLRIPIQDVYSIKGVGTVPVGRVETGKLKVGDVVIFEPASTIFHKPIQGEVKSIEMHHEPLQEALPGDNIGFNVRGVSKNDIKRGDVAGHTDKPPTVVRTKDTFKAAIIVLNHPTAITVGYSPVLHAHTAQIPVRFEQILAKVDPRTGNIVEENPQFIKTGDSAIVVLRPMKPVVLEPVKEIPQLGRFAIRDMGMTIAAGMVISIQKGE
# T1 sequence 2: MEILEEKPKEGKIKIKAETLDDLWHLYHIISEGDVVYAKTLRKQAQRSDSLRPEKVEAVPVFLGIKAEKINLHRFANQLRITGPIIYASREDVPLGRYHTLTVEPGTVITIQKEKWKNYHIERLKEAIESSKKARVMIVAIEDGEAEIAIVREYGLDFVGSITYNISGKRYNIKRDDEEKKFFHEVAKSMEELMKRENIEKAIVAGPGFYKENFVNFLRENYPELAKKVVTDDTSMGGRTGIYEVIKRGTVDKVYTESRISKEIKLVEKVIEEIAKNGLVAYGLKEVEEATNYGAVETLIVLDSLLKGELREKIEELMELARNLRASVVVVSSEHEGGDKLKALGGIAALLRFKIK
# Method Description: fluorescence polarisation; FITC-labeled PhoP1C14 peptide (50 nM) mixed with 0-160 µM of the complex of each PhoEF1A mutant, GTP and PfuPelota; 20 mM HEPES-KOH pH 7.6, 10 mM MgCl2, 150 mM KCl, 0.1 mg/ml BSA; 25 °C; nonlinear regression, one site specific binding (GraphPad Prism 6); average of three replicates
# Experimental Setup: both partners purified
Primed or numbered codes have the meaning given here. Where no end group is shown, it is not given here. FITC′ = fluorescein isothiocyanate label
Test Readout: pKd
# reply with the number alone; pKd is -log10 of concentration in mol/L

Answer with the recorded pKd of {FITC′}-SEEEALAGLSALFG (also called FITC-labeled peptide of PhoP1C14; source: synthetic peptide (Hokkaido System Science Co., Ltd)) [FITC-labeled C-terminal 14-mer peptide of P. horikoshii aP1 (PhoP1C14)] only.
4.95
